B1: Cytoplasmic polyadenylation element-binding protein 2, residues 513 to 575; numbered along this chain, Q7Z5Q1 (parent)
chain: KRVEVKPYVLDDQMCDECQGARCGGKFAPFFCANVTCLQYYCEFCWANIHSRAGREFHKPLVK

Variants of: B1
Assay: abundance fitness (aPCA) (normalised: wild type 0, dead -1); higher = more abundant; growth selection in yeast, the domain comes from the species named
Details: Homo sapiens
Decision: abundance fitness >= -0.2 yields Fulfilled, all other cases yield Not fulfilled.

Exercise: Form field: abundance fitness at least -0.2? Entry: KRVEVKPYVLDDQMCDECQGARCGGKFAPFFCANVTCLQYYCEFCWANIHSRAGREWHKPLVK [F57W]
Solution: Fulfilled

Exercise: Entry KRVEVKPYYLDDQMCDECQGARCGGKFAPFFCANVTCLQYYCEFCWANIHSRAGREFHKPLVK [V9Y] please
Solution: Not fulfilled

Exercise: Do the same for KRVEVKPYVLDDQMCDECQGARCGGKFAPFFWANVTCLQYYCEFCWANIHSRAGREFHKPLVK [C32W] please
Solution: Not fulfilled

Exercise: Also KRVEVKPYVLDDQMCDEEQGARCGGKFAPFFCANVTCLQYYCEFCWANIHSRAGREFHKPLVK [C18E] , if possible.
Solution: Not fulfilled

Exercise: Now consider KRVEVKPYVLDDQMCRECQGARCGGKFAPFFCANVTCLQYYCEFCWANIHSRAGREFHKPLVK [D16R] and answer again.
Solution: Fulfilled

Exercise: Continue with KRVEVKPYVLDDQMCDECQGARCGGKFAPFFCANVTCLQYYCEFCWANIHSRAGLEFHKPLVK [R55L]
Solution: Fulfilled

Exercise: Would you kindly repeat that for KRVEVKPYVLDDQMCDECQGARCGGKAAPFFCANVTCLQYYCEFCWANIHSRAGREFHKPLVK [F27A] ?
Solution: Fulfilled

Exercise: Let us now turn to KRVEVKPYVLDDQMCDECQGARCGGKFAPFFCANVTCLQYYCEFCWANIHSRAGREFFKPLVK [H58F]
Solution: Not fulfilled

Exercise: Moving on to KRMEVKPYVLDDQMCDECQGARCGGKFAPFFCANVTCLQYYCEFCWANIHSRAGREFHKPLVK [V3M]
Solution: Fulfilled

Exercise: Also KRVEVKPYVLDDQMCDECQGARCWGKFAPFFCANVTCLQYYCEFCWANIHSRAGREFHKPLVK [G24W] ?
Solution: Not fulfilled

Exercise: Also KRVEVKPYVLRDQMCDECQGARCGGKFAPFFCANVTCLQYYCEFCWANIHSRAGREFHKPLVK [D11R] , if possible.
Solution: Fulfilled

Exercise: Another: KRVEVKPYVLDDQMCDECQGARCGGKFAPFFCANVTCLQQYCEFCWANIHSRAGREFHKPLVK [Y40Q]
Solution: Fulfilled

Exercise: Proceed to KRVEVKPYVLDDQMCDECQGARCGGKFAPFFCANVTCLQYYCEFCWPNIHSRAGREFHKPLVK [A47P]
Solution: Fulfilled

Exercise: What do you have for KRVEVKPYVLDAQMCDECQGARCGGKFAPFFCANVTCLQYYCEFCWANIHSRAGREFHKPLVK [D12A] ?
Solution: Fulfilled

Exercise: KRVEVKPYVLDDQMCDECQGARCGGKFAPFFCANVTCLQYKCEFCWANIHSRAGREFHKPLVK [Y41K] ?
Solution: Not fulfilled

Exercise: Param item: KRVEVKPYVLDDQMCDGCQGARCGGKFAPFFCANVTCLQYYCEFCWANIHSRAGREFHKPLVK [E17G]
Solution: Fulfilled

Exercise: Please do the same for KRVEVKPYVLDDQMCDECQGARCGGKFACFFCANVTCLQYYCEFCWANIHSRAGREFHKPLVK [P29C] as well.
Solution: Fulfilled

Exercise: Another variant to check: IRVEVKPYVLDDQMCDECQGARCGGKFAPFFCANVTCLQYYCEFCWANIHSRAGREFHKPLVK [K1I]
Solution: Not fulfilled

Exercise: Then this variant: KRVEVKPYVLDDQMCDECQGARCGHKFAPFFCANVTCLQYYCEFCWANIHSRAGREFHKPLVK [G25H]
Solution: Fulfilled

Exercise: Next record, please: KRVEVKPYVLDDQMCDECQGARCGGKFAPFFCANVTCLQYYCEFCWANIHSRAGREIHKPLVK [F57I]
Solution: Fulfilled

Exercise: Similarly, KAVEVKPYVLDDQMCDECQGARCGGKFAPFFCANVTCLQYYCEFCWANIHSRAGREFHKPLVK [R2A] ?
Solution: Fulfilled
